Attribution: patent US20260355225A1

# Protocol summary: Cytotoxicity of D-xylose, MTT assay, absence of viral infection (Example 1)
# Type: cell-based
# Measurement conditions: monkey, vero cells, 6 h pre-treatment; 10.5 mM; read-out: Viability percentage
Property: viability at 10500 µM
The answer consists of two parts: a number and, after it, its unit.

Reported viability at 10500 µM of O=C[C@H](O)[C@@H](O)[C@H](O)CO [D-xylose] : 109%

* * *

# Protocol summary: Cytotoxicity of D-xylose alone or + insulin, MTT assay, absence of viral infection (Example 2)
# Measurement conditions: human, hela tzmbl cells, Cytotoxicity percentage, D-xylose 104 mM
Property: cytotoxicity at 48 h, 104000 µM (%)
Give the quantity in %, number only.

compound "O=C[C@H](O)[C@@H](O)[C@H](O)CO" , cytotoxicity at 48 h, 104000 µM observed: 14.1

* * *

# Protocol summary: Cytotoxicity of D-xylose, MTT assay, absence of viral infection (Example 1)
# Type: cell-based
# Measurement conditions: monkey, vero cells; MTT, no virus
Property: CC50

Lab note: measured CC50 of "O=C[C@H](O)[C@@H](O)[C@H](O)CO" was > 42 mM

* * *

# Protocol summary: Cytotoxicity of D-xylose alone or + insulin, MTT assay, absence of viral infection (Example 2)
# Measurement conditions: human, hela tzmbl cells, Viability percentage, D-xylose 104 mM
Property: viability at 48 h, 104000 µM (%)
Could you give me the number in %? Just the number is fine.

// recorded viability at 48 h, 104000 µM for "O=C[C@H](O)[C@@H](O)[C@H](O)CO" : 85.9

* * *

# Protocol summary: Cytotoxicity of D-xylose alone or + insulin, MTT assay, absence of viral infection (Example 2)
# Measurement conditions: human, hela tzmbl cells, Cytotoxicity percentage, AZT 0.062 μM
Property: cytotoxicity at 48 h, 0.062 µM
Remember to put the unit after the number in your answer.

Value of measured cytotoxicity at 48 h, 0.062 µM for the entry Cc1cn([C@H]2C[C@H](N=[N+]=[N-])[C@@H](CO)O2)c(=O)[nH]c1=O [AZT, 3-azido-3-deoxythymidine, reference compound] : 4.36%

* * *

# Protocol summary: Cytotoxicity of D-xylose, MTT assay, absence of viral infection (Example 1)
# Type: cell-based
# Measurement conditions: monkey, vero cells, remdesivir at the time of infection; 5 μm; read-out: Viability percentage
Property: viability at 5 µM (%)
Response body: numeric value in %, unit text excluded.

Briefly, viability at 5 µM measured for CCC(CC)COC(=O)[C@H](C)N[P@](=O)(OC[C@H]1O[C@@](C#N)(c2ccc3c(N)ncnn23)[C@H](O)[C@@H]1O)Oc1ccccc1 [Remdesivir, reference compound] : 110

* * *

# Protocol summary: Cytotoxicity of D-xylose, MTT assay, absence of viral infection (Example 1)
# Type: cell-based
# Measurement conditions: monkey, vero cells, 6 h pre-treatment; 0.65625 mM; read-out: Viability percentage
Property: viability at 656.25 µM (%)
Your answer should be a plain number; it is taken to be in %.

# viability at 656.25 µM (molecule: "O=C[C@H](O)[C@@H](O)[C@H](O)CO" ) is 90.9

* * *

# Protocol summary: Antiviral assay against HIV-1 NL4-3, percentage of infected cells by immunofluorescence (Example 2)
# Measurement conditions: human, hela tzmbl cells, Viability Percentages, AZT 0.002 μM, replicate wells
Property: viability at 48 h, 0.002 µM (%)
Report the value in % with no unit label.

Sample Cc1cn([C@H]2C[C@H](N=[N+]=[N-])[C@@H](CO)O2)c(=O)[nH]c1=O [AZT, 3-azido-3-deoxythymidine, reference compound] ; viability at 48 h, 0.002 µM observed: 29.9

* * *

# Protocol summary: Cytotoxicity of D-xylose, MTT assay, absence of viral infection (Example 1)
# Assay type: cell-based
# Measurement conditions: monkey, vero cells, 6 h pre-treatment; 2.625 mM; read-out: Viability percentage
Property: viability at 2625 µM (%)
Please give a number only; it is taken to be in %.

Lab note: "O=C[C@H](O)[C@@H](O)[C@H](O)CO" gave viability at 2625 µM of 108
